# PROTOCOL DETAILS: Apparent permeability in human Caco2 cells at 5 uM incubated for 120 mins by LC-MS/MS method
# Type: ADME, cell-based
# EXPERIMENTAL PARAMETERS: Caco-2
MEASUREMENT TYPE: Papp at 2 h, 5 µM (×10⁻⁶ cm/s)
Just the number in ×10⁻⁶ cm/s, nothing appended.

Req: Look up and state reported Papp at 2 h, 5 µM for Cc1ccc(C(=O)Nc2cc(Br)ccc2C(=O)O)cc1S(=O)(=O)Nc1ccc(Cl)c(Cl)c1
Resp: 29.2

---

# ASSAYED TARGET: Replication protein A 70 kDa DNA-binding subunit (Homo sapiens, UniProt P27694)
# Sequence (P27694 whole entry): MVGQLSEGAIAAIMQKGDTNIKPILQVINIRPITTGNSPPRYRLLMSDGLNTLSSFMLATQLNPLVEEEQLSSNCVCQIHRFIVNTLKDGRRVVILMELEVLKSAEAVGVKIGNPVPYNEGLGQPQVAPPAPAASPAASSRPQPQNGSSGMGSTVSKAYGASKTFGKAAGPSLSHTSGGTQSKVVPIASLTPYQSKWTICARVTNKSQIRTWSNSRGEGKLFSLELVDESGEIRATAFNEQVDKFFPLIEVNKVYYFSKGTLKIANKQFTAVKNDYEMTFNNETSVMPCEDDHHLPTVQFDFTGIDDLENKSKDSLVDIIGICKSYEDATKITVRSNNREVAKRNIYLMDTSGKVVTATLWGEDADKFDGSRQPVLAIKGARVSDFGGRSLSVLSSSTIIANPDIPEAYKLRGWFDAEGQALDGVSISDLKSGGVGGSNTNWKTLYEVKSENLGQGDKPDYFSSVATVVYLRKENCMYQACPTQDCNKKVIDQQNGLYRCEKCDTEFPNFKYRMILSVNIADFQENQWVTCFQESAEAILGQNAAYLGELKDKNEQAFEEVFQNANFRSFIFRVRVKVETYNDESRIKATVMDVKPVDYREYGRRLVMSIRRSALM
# PROTOCOL DETAILS: Binding affinity to human recombinant RPA70 expressed in Escherichia coli BL21 using FPA by tryptophan fluorescence quenching assay
MEASUREMENT TYPE: pKd
Please express pKd as -log10 of the molar concentration.

Req: Give pKd for CC(C)C1=C[C@@]23CC[C@@H]4[C@](C)(CCC[C@@]4(C)C(=O)O)[C@H]2C[C@@H]1[C@@H](C(=O)O)[C@@H]3C(=O)O tested on Replication protein A 70 kDa DNA-binding subunit (Homo sapiens, UniProt P27694).
Resp: 4.54

---

# PROTOCOL DETAILS: Protein binding in human plasma at 1 ug/ml after 4 hrs by LC-MS/MS method
# Assay type: ADME, cell-free
# EXPERIMENTAL PARAMETERS: read-out: PPB (converted)
MEASUREMENT TYPE: fraction unbound at 4 h, 1 ug/ml
// no unit, no text: just the number

Req: For Cc1ccc(C(=O)Nc2cc(Br)ccc2C(=O)O)cc1S(=O)(=O)Nc1ccc(Cl)c(Cl)c1 , write its fraction unbound at 4 h, 1 ug/ml.
Resp: 0.002

---

# PROTOCOL DETAILS: Binding affinity to human recombinant RPA70 R41E/R43E mutant expressed in Escherichia coli BL21 using FPA by tryptophan fluorescence quenching assay
MEASUREMENT TYPE: Kd (µM)
Just the number in µM, nothing appended.

Req: Please look at this compound and report its Kd: CC(C)C1=C[C@@]23CC[C@@H]4[C@](C)(CCC[C@@]4(C)C(=O)O)[C@H]2C[C@@H]1[C@@H](C(=O)O)[C@@H]3C(=O)O
Resp: 230

Reference source: ChEMBL document CHEMBL4138047
